- study-system: Human STING (Homo sapiens, UniProt Q86WV6, G230A/H232R/R293Q/R71H)
- Construct: host or cells: THP1-Dual KO-IFNAR2 cells
- Sequence (Q86WV6 whole entry R71H/G230A/H232R/R293Q): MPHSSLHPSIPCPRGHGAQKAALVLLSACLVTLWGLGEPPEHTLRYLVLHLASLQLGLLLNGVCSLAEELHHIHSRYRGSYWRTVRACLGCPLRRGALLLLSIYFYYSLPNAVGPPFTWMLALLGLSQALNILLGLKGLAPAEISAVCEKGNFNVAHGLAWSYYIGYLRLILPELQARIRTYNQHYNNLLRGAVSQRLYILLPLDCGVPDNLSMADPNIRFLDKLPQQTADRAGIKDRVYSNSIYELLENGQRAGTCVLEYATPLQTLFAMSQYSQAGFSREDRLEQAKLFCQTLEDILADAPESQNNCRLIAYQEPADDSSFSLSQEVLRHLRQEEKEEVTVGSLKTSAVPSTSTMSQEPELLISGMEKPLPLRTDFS
- protocol-notes: STING reporter assay (luciferase) in THP1-Dual KO-IFNAR2 cells stimulated with 2′3′cGAMP
- Assay type: cell-based
- assay-setup: 15 μM 2′3′cGAMP, 24 h, class symbols
Exercise: state measured EC50 for each of the molecules provided.

Q: GET /values?readout=EC50&item= "Fc1cc2[nH]cc(Nc3ccc4ccc(C(F)(F)F)cc4n3)c2cc1F"
A: 0.2 to 1 µM

Q: How about this molecule: "c1ccc2sc(Nc3c[nH]c4ccccc34)nc2c1"
A: 1 to 5 µM

Q: How about this molecule: "O=c1cc(-c2ccccc2)[nH]c(Nc2c[nH]c3cccnc23)n1"
A: 1 to 5 µM

Q: How about this molecule: "c1ccc2nc(Nc3c[nH]c4ccccc34)ccc2c1"
A: 1 to 5 µM

Q: How about this molecule: "c1ccc2nc(Nc3c[nH]c4ccccc34)ncc2c1"
A: 5 to 30 µM

Q: How about this molecule: "Fc1cc2[nH]cc(Nc3ccc4cc(C(F)(F)F)ccc4n3)c2cc1F"
A: 1 to 5 µM

Q: How about this molecule: "Fc1cnc2[nH]cc(Nc3ncc(-c4ccccc4)o3)c2c1"
A: 0.2 to 1 µM

Q: How about this molecule: "O=c1cc(-c2ccccc2)[nH]c(Nc2c[nH]c3cc(F)c(F)cc23)n1"
A: 5 to 30 µM

Q: How about this molecule: "c1ccc(-c2ccc(Nc3c[nH]c4cccnc34)nc2)cc1"
A: 5 to 30 µM

Q: How about this molecule: "c1ccc(-c2ccnc(Nc3c[nH]c4cccnc34)c2)cc1"
A: 5 to 30 µM

Q: How about this molecule: "c1ccc(-c2ccnc(Nc3c[nH]c4ccccc34)n2)cc1"
A: 1 to 5 µM

Q: How about this molecule: "c1ccc2cc(Nc3c[nH]c4ccccc34)ncc2c1"
A: 1 to 5 µM

Q: How about this molecule: "c1ccc(-c2cnc(Nc3c[nH]c4ccccc34)s2)cc1"
A: 0.2 to 1 µM
